Before we begin, note that these IC50 values for UniProtKB Q9UM73 originate from several publications.

Solved entries (count: 3):
1) N#Cc1c(-c2ccc(OC(=O)c3ccccc3)cc2F)nc2[nH]nc(-c3cccs3)c2c1-c1ccc(N2CCNCC2)cc1
100 to 1000 nM
2) Cc1n[nH]c2nc(-c3ccc(O)cc3F)c(C#N)cc12
100 to 1000 nM
3) Cc1cc(N2CCN(C(=O)c3ccc(-c4cnc5c(c4)N(Cc4cc(Cl)ccc4C(F)(F)F)CCN5)cc3)CC2)c2ccccc2n1
< 100 nM

Form field, IC50 with UniProtKB Q9UM73, item COc1ccc(N2CCN(C(C)C)CC2)cc1Nc1nc(Nc2ccccc2C(N)=O)c2cc[nH]c2n1 : 1.26 to 3.98 nM

Form field, IC50 with UniProtKB Q9UM73, item CN(C)CC#Cc1ccc(-c2c(C#N)c(-c3ccc(O)cc3)nc3[nH]ncc23)o1 : 1000 to 10000 nM
